Where do these numbers come from? They come from patent US10131663B2.

Target: Estrogen Receptor (ERα) in MCF-7 cells (Homo sapiens (Human), UniProt P03372)
Sequence (P03372 whole entry): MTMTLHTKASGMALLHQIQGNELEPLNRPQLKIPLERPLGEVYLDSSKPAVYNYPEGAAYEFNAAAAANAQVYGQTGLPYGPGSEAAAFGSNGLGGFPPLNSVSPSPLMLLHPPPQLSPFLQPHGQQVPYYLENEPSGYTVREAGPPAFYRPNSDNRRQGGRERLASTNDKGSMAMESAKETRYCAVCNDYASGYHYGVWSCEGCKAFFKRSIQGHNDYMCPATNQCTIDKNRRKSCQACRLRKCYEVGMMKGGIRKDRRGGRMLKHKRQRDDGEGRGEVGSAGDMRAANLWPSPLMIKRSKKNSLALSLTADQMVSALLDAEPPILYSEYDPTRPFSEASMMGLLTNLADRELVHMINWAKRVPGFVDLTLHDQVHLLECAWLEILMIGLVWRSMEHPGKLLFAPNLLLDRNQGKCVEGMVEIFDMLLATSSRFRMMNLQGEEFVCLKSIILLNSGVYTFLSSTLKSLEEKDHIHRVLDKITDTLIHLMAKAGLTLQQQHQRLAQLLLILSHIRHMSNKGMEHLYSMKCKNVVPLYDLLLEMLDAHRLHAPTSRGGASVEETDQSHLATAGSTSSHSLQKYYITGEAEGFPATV
Experiment: Western blotting assay, ER down-regulation in MCF-7
Type: cell-based
Conditions: 100 nM compound, 48 h, normalised to 100 nM fulvestrant

{"columns": ["record_smiles", "MCF7 Western % ER deg vs Fv"],
 "data": [
  ["COc1cc(NC2CN(CCCF)C2)ccc1[C@@H]1c2ccc3[nH]ncc3c2C[C@@H](C)N1CC(C)(C)F", "86%"],
  ["C[C@@H]1Cc2c(ccc3[nH]ncc23)[C@@H](c2c(F)cc(NC3CN(CCCF)C3)cc2F)N1CC(F)(F)F", "101%"],
  ["C[C@@H]1Cc2c(ccc3[nH]ncc23)[C@@H](c2ncc(NC3CN(CCCF)C3)cc2F)N1CC(F)F", "105%"],
  ["C[C@@H]1Cc2c(ccc3[nH]ncc23)[C@@H](c2c(F)cc(NC3CN(CCCF)C3)cc2F)N1CC(F)F", "98%"],
  ["COc1cc(OC2CN(CCCF)C2)ccc1[C@@H]1c2ccc3[nH]ncc3c2C[C@@H](C)N1CC1(F)CC1", "90%"],
  ["C[C@@H]1Cc2c(ccc3[nH]ncc23)[C@@H](c2ccc(NC3CN(CCCF)C3)cc2)N1CC(F)(F)F", "110%"],
  ["COc1cc(NC2CN(CCC(F)(F)F)C2)ccc1[C@@H]1c2ccc3[nH]ncc3c2C[C@@H](C)N1CC1(F)CC1", "61%"],
  ["C[C@@H]1Cc2c(ccc3[nH]ncc23)[C@@H](c2ccc(N(C)C3CN(CCCF)C3)cn2)N1CC(F)(F)F", "85%"],
  ["COc1cc(NC2CN(CCCF)C2)ccc1[C@@H]1c2ccc3[nH]ncc3c2C[C@@H](C)N1CC(F)F", "99%"],
  ["C[C@@H]1Cc2c(ccc3[nH]ncc23)[C@@H](c2ccc(NC3CN(CCCF)C3)nc2F)N1CC(F)(F)F", "98%"],
  ["COc1cc(NC2CN(CCCF)C2)ccc1[C@@H]1c2ccc3[nH]ncc3c2C[C@@H](C)N1CC(F)(F)F", "95%"],
  ["C[C@@H]1Cc2c(ccc3[nH]ncc23)[C@@H](c2ccc(NC3CN(CCCF)C3)cc2)N1CC(F)F", "93%"],
  ["C[C@@H]1Cc2c(ccc3[nH]ncc23)[C@@H](c2cnc(NC3CN(CCCF)C3)cn2)N1CC(F)(F)F", "92%"],
  ["COCC(F)(F)CN1[C@H](c2ccc(NC3CN(CCCF)C3)cn2)c2ccc3[nH]ncc3c2C[C@H]1C", "93%"],
  ["C[C@@H]1Cc2c(ccc3[nH]ncc23)[C@@H](c2ccc(NC3CN(CCCF)C3)cn2)N1CC(F)(F)CO", "104%"],
  ["COc1cc(NC2CN(CCCF)C2)ccc1[C@@H]1c2ccc3[nH]ncc3c2C[C@@H](C)N1CC(C)(F)F", "92%"],
  ["C[C@@H]1Cc2c(ccc3[nH]ncc23)[C@@H](c2ccc(NC3CN(CCCF)C3)cn2)N1CC(F)F", "98%"]
]}
